Target: PAF receptor (Homo sapiens, UniProt P25105)
Sequence (P25105 whole entry): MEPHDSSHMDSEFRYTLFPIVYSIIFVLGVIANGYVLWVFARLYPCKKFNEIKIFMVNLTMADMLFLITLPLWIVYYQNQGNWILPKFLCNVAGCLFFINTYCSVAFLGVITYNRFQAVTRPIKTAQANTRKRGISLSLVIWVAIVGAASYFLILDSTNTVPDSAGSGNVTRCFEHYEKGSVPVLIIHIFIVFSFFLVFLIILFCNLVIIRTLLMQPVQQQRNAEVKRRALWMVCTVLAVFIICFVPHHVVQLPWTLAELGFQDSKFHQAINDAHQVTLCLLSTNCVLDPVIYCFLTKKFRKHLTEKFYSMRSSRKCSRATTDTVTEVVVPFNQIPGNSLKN
property.measured: IC50

- compound: "COc1cc(Cn2ccc3ncccc32)ccc1C(=O)N(C1CCCC1)C1CC(C)CC(C)C1 (stereo not drawn) [Example 5]"
  property.measured: "IC50"
  observed: "15 nM"
- compound: "COc1cc(Cn2ccc3ncccc32)ccc1C(=O)N(C(C)C)C1CCCCC1 [Example 3]"
  property.measured: "IC50"
  observed: "2 nM"
- compound: "COc1cc(C(=O)N(C(C)C)C2CCCCC2)ccc1Cn1ccc2ncccc21 [Example 1]"
  property.measured: "IC50"
  observed: "38 nM"
